Biological target: Sterol O-acyltransferase 1 (Rattus norvegicus, UniProt O70536)
Sequence (O70536 whole entry): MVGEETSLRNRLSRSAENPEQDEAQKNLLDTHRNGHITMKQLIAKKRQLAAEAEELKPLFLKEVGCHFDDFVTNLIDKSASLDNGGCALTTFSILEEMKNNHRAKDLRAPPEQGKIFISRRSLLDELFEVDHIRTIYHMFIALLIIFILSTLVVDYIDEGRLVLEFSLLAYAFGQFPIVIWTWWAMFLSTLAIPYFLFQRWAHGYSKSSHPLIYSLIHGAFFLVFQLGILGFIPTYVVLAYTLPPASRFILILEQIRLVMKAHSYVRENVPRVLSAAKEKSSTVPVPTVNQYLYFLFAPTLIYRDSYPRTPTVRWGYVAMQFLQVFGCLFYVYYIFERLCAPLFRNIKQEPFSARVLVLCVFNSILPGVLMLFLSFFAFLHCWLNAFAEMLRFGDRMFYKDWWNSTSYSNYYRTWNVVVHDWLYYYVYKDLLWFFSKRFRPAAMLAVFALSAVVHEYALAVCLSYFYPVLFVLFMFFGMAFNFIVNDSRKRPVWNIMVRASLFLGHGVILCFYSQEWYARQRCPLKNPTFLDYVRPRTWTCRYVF
Assay: Concentration required to inhibit 50% activity of Acyl coenzyme A:cholesterol acyltransferase 1 in vitro using rat liver microsome.
Assay type: microsomes
Conditions: read-out: IC50
MEASUREMENT KIND: pIC50
// pIC50: -log10(molar conc.)

Kindly indicate its recorded pIC50. Item: CCCCCCCN(CCCCCSc1nc(-c2ccc(N(C)C)cc2)c(-c2ccc(N(C)C)cc2)[nH]1)C(=O)NC(C)C
7.10

Identify pIC50 associated with the compound CC(C)NC(=O)N(CCN(C)CCSc1nc(-c2ccccc2)c(-c2ccccc2)[nH]1)CCN1CCOCC1
6.46

Identify the reported pIC50 for the following entry. CCOCCOCCN(CCCCCSc1nc(-c2ccccc2)c(-c2ccccc2)[nH]1)C(=O)Nc1ccc(F)cc1F
7.30

Identify measured pIC50 corresponding to CC(C)NC(=O)N(CCCCCSc1nc(-c2ccccc2)c(-c2ccccc2)[nH]1)CCOCCO
7.05

Find the measured pIC50 of CCOCCOCCN(CCCCCSc1nc(-c2ccccc2)c(-c2ccccc2)[nH]1)C(=O)NC(C)C and report it.
7.52

Hello, please tell me recorded pIC50 for this one: CCCCCCCN(CCCCCSc1nc(-c2ccc(SC)cc2)c(-c2ccc(SC)cc2)[nH]1)C(=O)Nc1ccc(F)cc1F
7.15

Give pIC50 for the following compound: CN(CCSc1nc(-c2ccccc2)c(-c2ccccc2)[nH]1)CCN(CCN1CCOCC1)C(=O)Nc1ccc(F)cc1F
6.62
